Source listed as ChEMBL document CHEMBL4732034.

- assay.protocol: Selectivity index, ratio of GI50 for human MCF10A cells to GI50 for human T47D cells by SRB assay
- Assay type: toxicity
- condition.summary: MCF10A cells versus T47D cells, read-out: RatioGI50
Below, each entry is listed with its recorded selectivity ratio.

compound	selectivity ratio
CC(=O)N1CCN(CC(O)COc2ccc(/C=C(\C#N)c3ccc(Cl)c(Cl)c3)cc2)CC1 (racemic)	2.3
N#C/C(=C\c1ccc(OCC(O)CN2CCN(c3ccc(C#N)cc3)CC2)cc1)c1ccc(Cl)c(Cl)c1 (racemic)	20

====

Below: a set of entries, each annotated with reported selectivity ratio.
- assay.protocol: Selectivity index, ratio of GI50 for human MCF10A cells to GI50 for human MCF-7 cells by SRB assay
- Type: toxicity
- condition.summary: MCF10A cells versus MCF-7 cells, read-out: RatioGI50

compound	selectivity ratio
N#C/C(=C\c1ccc(OCC(O)CN2CCN(c3ccc(C#N)cc3)CC2)cc1)c1ccc(Cl)c(Cl)c1 (racemic)	8.1
CC(=O)N1CCN(CC(O)COc2ccc(/C=C(\C#N)c3ccc(Cl)c(Cl)c3)cc2)CC1 (racemic)	3
COc1ccc(NCC(O)COc2ccc(/C=C(\C#N)c3ccc(Cl)c(Cl)c3)cc2)cc1 (racemic)	3.6
